system: human pulmonary malignant cells (A549); assay: Alamar Blue cytotoxicity assay, A549 cells; assay type: cell-based; conditions: 48 h exposure, Alamar Blue; read-out: IC50 (±SD) A549
Measured parameter: IC50 (µM)

[[record]]
molecule = "Oc1ccc(-c2csc(-c3ccccc3)n2)cc1O [Compound 3b]"
measured_parameter = "IC50"
test_value = 8.91

[[record]]
molecule = "Oc1ccc(-c2csc(-c3ccc(Cl)cc3)n2)cc1O [Compound 3c]"
measured_parameter = "IC50"
test_value = 8.16

[[record]]
molecule = "Cc1nc(-c2ccc(O)c(O)c2)cs1 [Compound 3a]"
measured_parameter = "IC50"
test_value = 31.5

